Residues, ends and D or L forms follow the SMILES beside them.
Quantity name: Ki (nM)
State the answer as a number, implicitly in nM.

Field Ki (system: Lethal factor (Bacillus anthracis)) for entry CC[C@H](C)[C@H](NC(=O)[C@H](CS)NC(=O)[C@H](CCCNC(=N)N)NC(=O)[C@H](CS)NC(=O)[C@@H](NC(=O)CNC(=O)[C@H](CCCNC(=N)N)NC(=O)[C@H](CCCNC(=N)N)NC(=O)[C@H](CS)NC(=O)[C@H](CC(C)C)NC(=O)[C@H](CS)NC(=O)[C@H](CCCNC(=N)N)NC(=O)[C@H](CS)NC(=O)[C@H](Cc1ccccc1)NC(=O)CN)C(C)C)C(=O)N[C@@H](CS)C(=O)N[C@H](C(=O)N[C@@H](CCCNC(=N)N)C(=O)O)[C@@H](C)O (H-GFCRCLCRRGVCRCICTR-OH) = 381

* * *

Target: UniProtKB P15917
Sequence (P15917 whole entry): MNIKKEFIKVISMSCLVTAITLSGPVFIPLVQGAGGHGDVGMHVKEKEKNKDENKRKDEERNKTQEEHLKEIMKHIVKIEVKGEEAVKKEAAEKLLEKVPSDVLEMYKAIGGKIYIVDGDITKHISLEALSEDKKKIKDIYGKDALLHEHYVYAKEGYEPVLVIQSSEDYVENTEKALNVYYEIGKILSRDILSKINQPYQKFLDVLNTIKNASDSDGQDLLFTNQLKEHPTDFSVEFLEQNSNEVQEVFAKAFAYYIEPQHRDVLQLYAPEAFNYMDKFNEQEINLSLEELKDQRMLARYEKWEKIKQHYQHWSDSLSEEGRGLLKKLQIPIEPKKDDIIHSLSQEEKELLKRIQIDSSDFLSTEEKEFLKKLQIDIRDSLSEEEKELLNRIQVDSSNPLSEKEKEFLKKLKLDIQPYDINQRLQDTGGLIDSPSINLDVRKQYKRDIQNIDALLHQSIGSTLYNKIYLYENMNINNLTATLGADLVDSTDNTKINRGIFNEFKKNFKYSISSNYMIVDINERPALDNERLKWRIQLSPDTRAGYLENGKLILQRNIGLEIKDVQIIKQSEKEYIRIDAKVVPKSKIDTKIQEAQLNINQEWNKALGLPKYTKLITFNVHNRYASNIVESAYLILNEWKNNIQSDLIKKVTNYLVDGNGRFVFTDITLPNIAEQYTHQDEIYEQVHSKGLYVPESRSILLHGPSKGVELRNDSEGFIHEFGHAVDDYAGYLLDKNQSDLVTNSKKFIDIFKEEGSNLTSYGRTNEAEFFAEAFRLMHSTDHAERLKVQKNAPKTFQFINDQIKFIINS
Residues, ends and D or L forms follow the SMILES beside them.
Task for the reader: assign each of the following compounds its reported pKi.
The quantity pKi is defined as the negative base-10 logarithm of the molar concentration.

Entry CC[C@H](C)[C@H](NC(=O)[C@H](CS)NC(=O)[C@H](CC(=O)O)NC(=O)[C@H](CS)NC(=O)[C@H](CO)NC(=O)[C@H](CO)NC(=O)[C@H](CCCNC(=N)N)NC(=O)CNC(=O)[C@H](CS)NC(=O)[C@H](Cc1ccccc1)NC(=O)[C@H](CS)NC(=O)[C@H](CCCNC(=N)N)NC(=O)[C@H](CS)NC(=O)[C@H](Cc1ccccc1)NC(=O)CN)C(=O)N[C@@H](CS)C(=O)N[C@H](C(=O)N[C@@H](CCCNC(=N)N)C(=O)O)[C@@H](C)O (H-GFCRCFCGRSSCDCICTR-OH) , pKi reported as 5.93

Entry CC[C@H](C)[C@H](NC(=O)[C@H](CS)NC(=O)[C@H](Cc1c[nH]c2ccccc12)NC(=O)[C@H](CS)NC(=O)CNC(=O)[C@H](Cc1ccc(O)cc1)NC(=O)[C@H](CCCNC(=N)N)NC(=O)[C@H](CO)NC(=O)[C@H](CS)NC(=O)[C@@H]1CCCN1C(=O)[C@H](CS)NC(=O)[C@H](CCCNC(=N)N)NC(=O)[C@H](CS)NC(=O)[C@H](Cc1ccccc1)NC(=O)CN)C(=O)N[C@@H](CS)C(=O)N[C@H](C(=O)N[C@@H](CCCNC(=N)N)C(=O)O)[C@@H](C)O (H-GFCRCPCSRYGCWCICTR-OH) , pKi reported as 6.02

Entry CC[C@H](C)[C@H](NC(=O)[C@H](CS)NC(=O)[C@H](CCCNC(=N)N)NC(=O)[C@H](CS)NC(=O)[C@@H](NC(=O)CNC(=O)[C@H](Cc1cnc[nH]1)NC(=O)[C@H](CC(C)C)NC(=O)[C@H](CS)NC(=O)[C@H](C)NC(=O)[C@H](CS)NC(=O)[C@H](CCCNC(=N)N)NC(=O)[C@H](CS)NC(=O)[C@H](Cc1ccccc1)NC(=O)CN)C(C)C)C(=O)N[C@@H](CS)C(=O)N[C@H](C(=O)N[C@@H](CCCNC(=N)N)C(=O)O)[C@@H](C)O (H-GFCRCACLHGVCRCICTR-OH) , pKi reported as 6.02
